Ref: patent US20090291081A1

target: human IL-1β (human, UniProt P01584 117-269); assay: cell-based or functional assay
So I've got a bunch of binders here, and I need their IL-1β IC50 values.

binder	IL-1β IC50
ABT2-108/ABT1-122-508 hu IgG1/K wt (bispecific antibody, V domains shown) VH: EVQLLESGGGLVQPGGSLRLSCAASGFTFAEYTMMWVRQAPGKGLEWVSRIGQDGKNTYYADSVKGRFTISRDNSKNTLYLQMNSLRAEDTAVYYCAKYTGRVGVHHLFDYWGQGTLVTSS VL: DIQMTQSPSSLSASVGDRVTITCRASQPIWTELNWYQQKPGKAPKLLIYGSSSLQRGVPSRFSGSGSGTDFTLTISSLQPEDFATYYCQQFAYFPATFGQGTKVEIKR	20 nM

# evaluate next
Prompt line: Give the value of IL-1β IC50 reported for the following: ABT2-108-521/ABT1-95-A3 hu IgG1 wt (bispecific antibody, V domains shown) VH: EVQLLESGGGLVQPGGSLRLSCAASGFTFAEYTMMWVRQAPGKGLEWVSRIGQDGKNTYYADSVKGRFTISRDNSKNTLYLQMNSLRAEDTAVYYCAKYTGRILGHHLFDYWGQGTLVTVSS VL: DIQMTQSPSSLSASVGDRVTITCRASKPGVRNMRWYQQKPGKAPKLLIYSVSYLEPGVPSRFSGSGSGTDFTLTISSLQPEDFATYHCLQGYRWPPTFGQGTKVEIKR
Response line: 0.098 nM
